Assay: Growth inhibition of mouse B16 cells at 25 uM after 48 hrs by SRB assay relative to control
Format: cell-based
Details: read-out: GI
Item-by-item account of inhibition at 48 h, 25 µM
MEASURE NAME: inhibition at 48 h, 25 µM (%)

COMPOUND	MEASURE NAME	DATA VALUE
O=C(Oc1ccc(CCc2cc(OC(=O)C3CCCC3)cc(OC(=O)C3CCCC3)c2)cc1)C1CCCC1	inhibition at 48 h, 25 µM	9.69
CCCOc1ccc(CCc2cc(OCCC)cc(OCCC)c2)cc1	inhibition at 48 h, 25 µM	1.34
O=C(Oc1ccc(CCc2cc(OC(=O)c3ccc(Cl)cc3)cc(OC(=O)c3ccc(Cl)cc3)c2)cc1)c1ccc(Cl)cc1	inhibition at 48 h, 25 µM	5.26
C=CCOc1ccc(CCc2cc(OCC=C)cc(OCC=C)c2)cc1	inhibition at 48 h, 25 µM	1.31
CC(C)(C)C(=O)Oc1ccc(CCc2cc(OC(=O)C(C)(C)C)cc(OC(=O)C(C)(C)C)c2)cc1	inhibition at 48 h, 25 µM	6.91
Oc1ccc(/C=C/c2cc(O)cc(O)c2)cc1	inhibition at 48 h, 25 µM	13.1
C=CC(=O)Oc1ccc(CCc2cc(OC(=O)C=C)cc(OC(=O)C=C)c2)cc1	inhibition at 48 h, 25 µM	13.9
Oc1ccc(CCc2cc(O)cc(O)c2)cc1 [DIHYDRORESVERATROL]	inhibition at 48 h, 25 µM	5.2
O=C1O[C@H]([C@@H](O)CO)C(O)=C1O	inhibition at 48 h, 25 µM	4.94
